# pIC50 annotations
- system.under.test: Cdk9/cyclinT1 (Homo sapiens)
- assay.procedure: Cdk9/cyclinT1 IMAP protocol (fluorescence polarization)
- assay.setup: IC-50, CDK9; lower limit of assay 0.0005 micromolar
pIC50: −log10 of the molar value.

[
  {
    "molecule": "N#CC1(CNc2cccc(-c3cc(NC4CCC(N)CC4)ncc3Cl)n2)CC1 (stereo not shown)",
    "pIC50": "> 9.30"
  }
]

Q: What value of pIC50 has been reported for the following molecule? COC[C@H](C)N[C@H]1CC[C@H](Nc2cc(-c3cccc(NCC4(C#N)CCOCC4)n3)c(Cl)cn2)CC1
A: ≥ 9.30

Q: What value of pIC50 has been reported for the following molecule? CC(C)S(=O)(=O)NC[C@H]1CC[C@H](Nc2cc(-c3cccc(NCC4(C#N)CCOCC4)n3)c(Cl)cn2)CC1
A: > 9.30

Q: What value of pIC50 has been reported for the following molecule? N#CC1(CNc2cccc(-c3cc(N[C@H]4CC[C@H](N)CC4)ncc3Cl)n2)CCOCC1
A: > 9.30

* * *

- system.under.test: Cdk9/cyclinT1 (Homo sapiens, UniProt P50750)
- Sequence (P50750 whole entry): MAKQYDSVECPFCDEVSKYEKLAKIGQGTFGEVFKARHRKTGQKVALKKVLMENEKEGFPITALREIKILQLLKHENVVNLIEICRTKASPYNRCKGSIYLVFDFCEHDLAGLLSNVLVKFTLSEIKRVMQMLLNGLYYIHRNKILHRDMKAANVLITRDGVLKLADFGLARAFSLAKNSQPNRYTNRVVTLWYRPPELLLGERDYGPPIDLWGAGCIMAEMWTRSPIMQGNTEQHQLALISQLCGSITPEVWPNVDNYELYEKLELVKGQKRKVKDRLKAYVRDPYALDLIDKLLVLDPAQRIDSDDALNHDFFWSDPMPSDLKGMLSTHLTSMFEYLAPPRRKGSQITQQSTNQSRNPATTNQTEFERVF
- Sequence (O60563 whole entry partner): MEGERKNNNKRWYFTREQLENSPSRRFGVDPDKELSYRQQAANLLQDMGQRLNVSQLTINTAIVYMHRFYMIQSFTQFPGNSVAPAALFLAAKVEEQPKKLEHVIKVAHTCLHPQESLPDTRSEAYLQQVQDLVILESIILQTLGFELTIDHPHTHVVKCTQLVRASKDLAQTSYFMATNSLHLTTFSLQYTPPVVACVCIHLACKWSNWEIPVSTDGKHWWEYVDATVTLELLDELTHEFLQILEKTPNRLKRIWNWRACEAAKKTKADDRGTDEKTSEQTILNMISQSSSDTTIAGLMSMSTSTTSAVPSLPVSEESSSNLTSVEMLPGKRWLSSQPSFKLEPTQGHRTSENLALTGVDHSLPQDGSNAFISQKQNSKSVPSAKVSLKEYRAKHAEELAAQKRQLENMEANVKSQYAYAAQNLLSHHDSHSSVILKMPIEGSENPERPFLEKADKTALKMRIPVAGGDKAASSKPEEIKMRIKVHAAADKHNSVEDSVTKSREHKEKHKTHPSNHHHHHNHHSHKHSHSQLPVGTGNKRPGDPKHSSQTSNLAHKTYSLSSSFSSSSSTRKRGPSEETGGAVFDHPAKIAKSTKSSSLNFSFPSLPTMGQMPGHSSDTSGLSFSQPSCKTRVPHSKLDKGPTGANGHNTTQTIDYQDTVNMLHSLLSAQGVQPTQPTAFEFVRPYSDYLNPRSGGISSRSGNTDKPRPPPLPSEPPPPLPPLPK
- assay.procedure: Cdk9/cyclinT1 IMAP protocol (fluorescence polarization)
- assay.setup: IC-50, CDK9; lower limit of assay 0.0005 micromolar
pIC50: −log10 of the molar value.
measured.endpoint: pIC50

[
  {
    "compound": "N#CC1(CNc2cccc(-c3cc(N[C@H]4CC[C@H](N)CC4)ncc3F)n2)CC1",
    "pIC50": "> 9.30"
  },
  {
    "compound": "COCCN(CCOC)[C@H]1CC[C@H](Nc2cc(-c3cccc(NCC4(C#N)CCOCC4)n3)c(Cl)cn2)CC1",
    "pIC50": "> 9.30"
  },
  {
    "compound": "COC[C@@H](C)N[C@H]1CC[C@H](Nc2cc(-c3nc(NCC4(C#N)CCOCC4)cnc3Cl)c(Cl)cn2)CC1",
    "pIC50": "≥ 9.30"
  },
  {
    "compound": "COC[C@@H](C)N[C@H]1CC[C@H](Nc2cc(-c3cncc(NCC4(C#N)CCOCC4)n3)c(Cl)cn2)CC1",
    "pIC50": "> 9.30"
  }
]

Q: What value of pIC50 has been reported for the following molecule? COCC(=O)NC[C@H]1CC[C@H](Nc2cc(-c3cccc(NCC4(C#N)CCOCC4)n3)c(Cl)cn2)CC1
A: > 9.30
